Assay: Antioxidant activity of the compound after 30 mins by CUPRAC method
Format: physicochemical
pEC50: −log10 of the molar value.
Metric: pEC50

[[record]]
compound = "Cc1c(C)c2c(c(C)c1O)CCC(C)(C(=O)O)O2 (configuration not stated) [TROLOX]"
recorded_result = 3.62

[[record]]
compound = "CC(C)=N/N=C1\\SCC(=O)N1Cc1ccc(N)cc1"
recorded_result = 2.75

[[record]]
compound = "C/C(=N/N=C1\\SCC(=O)N1Cc1ccc(F)cc1)c1cccs1"
recorded_result = 2.73

[[record]]
compound = "O=C1CS/C(=N\\N=C2CCCC2)N1Cc1ccc(Cl)cc1"
recorded_result = 2.68

[[record]]
compound = "C/C(=N/N=C1\\SCC(=O)N1Cc1ccc(F)cc1)c1ccccn1"
recorded_result = 2.76

[[record]]
compound = "C/C(=N\\N=C1/SCC(=O)N1Cc1cccc(Cl)c1)c1cccs1"
recorded_result = 2.80

[[record]]
compound = "CC(C)=N/N=C1\\SCC(=O)N1Cc1cccc([N+](=O)[O-])c1"
recorded_result = 2.63

[[record]]
compound = "C/C(=N\\N=C1/SCC(=O)N1Cc1cccc(Cl)c1)c1ccccn1"
recorded_result = 2.85

[[record]]
compound = "C/C(=N\\N=C1/SCC(=O)N1Cc1cccc(F)c1)c1cccs1"
recorded_result = 2.59

[[record]]
compound = "C/C(=N/N=C1\\SCC(=O)N1Cc1ccccc1[N+](=O)[O-])c1cccs1"
recorded_result = 2.65

[[record]]
compound = "O=C1CS/C(=N\\N=C2CCCC2)N1Cc1ccccc1F"
recorded_result = 2.63

[[record]]
compound = "C/C(=N\\N=C1/SCC(=O)N1Cc1ccccc1F)c1cccs1"
recorded_result = 2.62


* * *

viability at 24 h, 0.05 ug/ml values, listed per item
Assay: Cytotoxicity against human Hep2 cells assessed as cell survival at 0.05 ug/ml after 24 hrs by trypan blue exclusion assay
Assay type: cell-based, HEp-2
Conditions: read-out: Survival
Metric: viability at 24 h, 0.05 ug/ml (%)

[[record]]
smi = "C/C(=N\\N=C1/SCC(=O)N1Cc1ccccc1F)c1cccs1"
recorded_result = 91

[[record]]
smi = "O=C1CS/C(=N\\N=C2CCCC2)N1Cc1ccccc1F"
recorded_result = 82

[[record]]
smi = "C/C(=N\\N=C1/SCC(=O)N1Cc1cccc(F)c1)c1cccs1"
recorded_result = 80

[[record]]
smi = "C/C(=N/N=C1\\SCC(=O)N1Cc1ccc(F)cc1)c1ccccn1"
recorded_result = 91

[[record]]
smi = "C/C(=N\\N=C1/SCC(=O)N1Cc1cccc(Cl)c1)c1ccccn1"
recorded_result = 94

[[record]]
smi = "C/C(=N/N=C1\\SCC(=O)N1Cc1ccccc1[N+](=O)[O-])c1cccs1"
recorded_result = 88

[[record]]
smi = "C/C(=N/N=C1\\SCC(=O)N1Cc1ccc(F)cc1)c1cccs1"
recorded_result = 83

[[record]]
smi = "O=C1CS/C(=N\\N=C2CCCC2)N1Cc1ccc(Cl)cc1"
recorded_result = 89

[[record]]
smi = "CC(C)=N/N=C1\\SCC(=O)N1Cc1cccc([N+](=O)[O-])c1"
recorded_result = 79

[[record]]
smi = "C/C(=N\\N=C1/SCC(=O)N1Cc1cccc(Cl)c1)c1cccs1"
recorded_result = 94


* * *

Experiment: Cytotoxicity against human Hep2 cells assessed as cell survival at 0.5 ug/ml after 24 hrs by trypan blue exclusion assay
Assay type: cell-based, HEp-2
Conditions: read-out: Survival
Metric: viability at 24 h, 0.5 ug/ml (%)

[[record]]
smi = "C/C(=N\\N=C1/SCC(=O)N1Cc1cccc(F)c1)c1cccs1"
measurement_unit = "%"
recorded_result = 68

[[record]]
smi = "C/C(=N\\N=C1/SCC(=O)N1Cc1cccc(Cl)c1)c1ccccn1"
measurement_unit = "%"
recorded_result = 87.5

[[record]]
smi = "O=C1CS/C(=N\\N=C2CCCC2)N1Cc1ccc(Cl)cc1"
measurement_unit = "%"
recorded_result = 83

[[record]]
smi = "C/C(=N/N=C1\\SCC(=O)N1Cc1ccc(F)cc1)c1cccs1"
measurement_unit = "%"
recorded_result = 76

[[record]]
smi = "O=C1CS/C(=N\\N=C2CCCC2)N1Cc1ccccc1F"
measurement_unit = "%"
recorded_result = 69

[[record]]
smi = "C/C(=N\\N=C1/SCC(=O)N1Cc1cccc(Cl)c1)c1cccs1"
measurement_unit = "%"
recorded_result = 89

[[record]]
smi = "C/C(=N\\N=C1/SCC(=O)N1Cc1ccccc1F)c1cccs1"
measurement_unit = "%"
recorded_result = 80

[[record]]
smi = "C/C(=N/N=C1\\SCC(=O)N1Cc1ccccc1[N+](=O)[O-])c1cccs1"
measurement_unit = "%"
recorded_result = 84

[[record]]
smi = "C/C(=N/N=C1\\SCC(=O)N1Cc1ccc(F)cc1)c1ccccn1"
measurement_unit = "%"
recorded_result = 83

[[record]]
smi = "CC(C)=N/N=C1\\SCC(=O)N1Cc1cccc([N+](=O)[O-])c1"
measurement_unit = "%"
recorded_result = 68

